The values you see were collected from ChEMBL document CHEMBL1134538.

List of pKD values.
target: UniProtKB P32745; test: Binding assay at human somatostatin receptor 3 (hsst3) expressed in CCL-39 cells using LTT-CST-14-(Tyr10) as radioligand.; type: cell-based
Sequence (P32745 whole entry): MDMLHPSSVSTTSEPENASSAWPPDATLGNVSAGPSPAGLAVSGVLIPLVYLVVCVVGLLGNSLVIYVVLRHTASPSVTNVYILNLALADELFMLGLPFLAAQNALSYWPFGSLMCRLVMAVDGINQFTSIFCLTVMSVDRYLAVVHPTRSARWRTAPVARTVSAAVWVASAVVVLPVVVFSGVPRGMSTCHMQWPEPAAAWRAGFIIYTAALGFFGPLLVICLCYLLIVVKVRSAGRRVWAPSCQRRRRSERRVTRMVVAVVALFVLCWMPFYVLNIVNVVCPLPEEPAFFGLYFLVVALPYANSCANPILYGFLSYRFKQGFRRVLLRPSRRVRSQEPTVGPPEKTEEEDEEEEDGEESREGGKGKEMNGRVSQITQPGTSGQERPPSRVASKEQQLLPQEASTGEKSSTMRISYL
Positions of bridges follow the written chain, without caps; N, C: chain ends. Non-standard residues stand in square brackets, D forms with d. Residues, ends and D or L forms follow the SMILES beside them. *: point of attachment. Threoninol(2S,3R) = C[C@@H](O)[C@H](CO)N*

{"columns": ["MOLECULE", "pKD"],
 "data": [
  ["CC(=O)N[C@H](CC(=O)NC[C@H](CCCCN)C(=O)N[C@H](CC(=O)N[C@H](CC(N)=O)Cc1ccccc1)Cc1c[nH]c2ccccc12)[C@@H](C)O", "< 5"],
  ["CC(=O)N[C@H](CC(=O)N[C@@H](CCCCN)CC(=O)N[C@H](CC(=O)N[C@H](CC(N)=O)Cc1ccccc1)Cc1c[nH]c2ccccc12)[C@@H](C)O", "< 5"],
  ["CC(=O)N[C@H](C(=O)N[C@@H](CCCCN)C(=O)N[C@@H](Cc1c[nH]c2ccccc12)C(=O)N[C@@H](Cc1ccccc1)C(N)=O)[C@@H](C)O (Ac-TKWF-NH2)", "< 5"],
  ["C[C@@H](O)[C@H](CO)NC(=O)[C@@H]1CSSC[C@H](NC(=O)[C@H](N)Cc2ccccc2)C(=O)N[C@@H](Cc2ccccc2)C(=O)N[C@H](Cc2c[nH]c3ccccc23)C(=O)N[C@@H](CCCCN)C(=O)N[C@@H]([C@@H](C)O)C(=O)N1 (H-[dF]CF[dW]KTC-{Threoninol(2S,3R)}; disulfide 2-7)", 8.6]
]}
